assay: chemical genetic growth profiling, strain panel (AID 1159580);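 also: tested at 20 µM; growth read once vehicle control cultures reached saturation at 30 °C; 1 = growth at the plate median or of vehicle wells; lower values mean less growth of the strain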; details: S. cerevisiae deletion strains, growth OD, locus YNL197C, strain WHI3, stronger effect = lower value
Among all 5,500 compounds or so, about 2,000 (36%) were called active. Not shown: some 18% with an inconclusive outcome. This is one part of the list.

COMPOUND	normalized growth
S=C(S)N1CCCC1	0.409 (active)
Fc1ccc(CN(C2=NCCN2)c2c(Cl)cccc2Cl)cc1	1 (inactive)
CN1Cc2c(N)cccc2C(c2ccccc2)C1 (centres undefined)	0.984 (inactive)
CCCN(CCC)[C@@H]1CCc2cccc(O)c2C1	0.974 (inactive)
CCCN(CCC)[C@H]1CCc2c(F)ccc(O)c2C1	0.979 (inactive)
C/C=C(/C)C(=O)O[C@H]1C(C)=C2[C@H]([C@@H]1OC(=O)CCCCCCC)[C@@](C)(OC(C)=O)C[C@H](OC(=O)CCC)[C@@]1(O)[C@H]2OC(=O)[C@@]1(C)O	0.984 (inactive)
COC1(C2=NCCN2)COc2ccccc2O1 (centres undefined)	1.01 (inactive)
CCCN(CCC)[C@@H]1CCc2c(F)ccc(O)c2C1	0.992 (inactive)
Nc1nc2c(nc(Br)n2C2OC3COP(=O)(O)O[C@@H]3C2O)c(=O)[nH]1 (some centres undefined)	1.01 (inactive)
